Target: HIV-1 nucleocapsid protein (NC) (HIV-1 NL4-3, UniProt P12493)
Assay: ITC; exothermic only, n=1.8±0.1; ITC: 10 mM Tris-HCl pH 7.0, 140 mM KCl, 10 mM NaCl, 5 mM MgCl2, 5 mM TCEP, 30 °C; NC (120-240 µM) titrated into RNA (0.6-4 µM)
Details: protein: recombinant; tags: none stated; hairpin with single-stranded 3' GGAG region
measurement name: Kd (µM)
Give bare numbers, in µM.

So what does the record say about Kd for GACUAGCGGAGGCUAGAAGGAG (structured_RNA) [Ψ-fragment] ?
0.45
